Target: HLA-A*03:01
Assay: IEDB peptide-MHC binding, purified MHC/competitive/radioactivity; bounds were set here for any values at or beyond the usual limits of such assays
Settings: source organism: Homo sapiens
measure_name: pIC50
One number for each entry, as −log10 of the molar value.

> print(dat)
   sequence.entry  target.or.system  measure.name  measured
1       LIYRRRLMK       HLA-A*03:01         pIC50      8.26

Batch lookup, pIC50 per entry.
1. QLVLHQILK
2. ALNFPGSQK
3. SLIYRRRLMK
4. IALNFPGSQK

Result:
7.28
8.07
7.41
7.44

###

Target: HLA-A*33:01
Assay: IEDB peptide-MHC binding, purified MHC/competitive/radioactivity; filed as Kd, often an IC50 or EC50 that approximates it; bounds were set here for any values at or beyond the usual limits of such assays
Conditions: source organism: Homo sapiens
measure_name: Kd

> print(dat)
   sequence.entry  measured
1      IALNFPGSQK   ≥ 10 µM

Task: Endpoint output: Kd of ALNFPGSQK . Value?
Result: ≥ 10 µM

###

Target: HLA-A*31:01
Assay: IEDB peptide-MHC binding, purified MHC/competitive/radioactivity; filed as Kd, often an IC50 or EC50 that approximates it; bounds were set here for any values at or beyond the usual limits of such assays
Conditions: source organism: Homo sapiens
Exercise: state measured Kd for each of the sequences provided.

> print(dat)
   sequence.entry  measured
1      IALNFPGSQK   ≥ 10 µM

Would you kindly look at the next entry?
Task: What value of Kd has been reported for the following sequence? ALNFPGSQK
Result: ≥ 10 µM

###

Biological target: HLA-A*11:01
Assay: IEDB peptide-MHC binding, purified MHC/competitive/radioactivity; bounds were set here for any values at or beyond the usual limits of such assays
Details: source organism: Homo sapiens
measure_name: pIC50
Give bare numbers, as −log10 of the molar value.

> print(dat)
   sequence.entry  measure.name  measured
1      IALNFPGSQK         pIC50      6.50

Task: Query for HLA-A*11:01: what pIC50 does the record show for ALNFPGSQK ?
Result: 8.34
